- Assay notes: Inhibition of arachidonate 5-lipoxygenase purified from porcine leukocytes.
Kindly supply the reported pIC50 values for the records listed here.
Numbers only, as −log10 of the molar value.

Worked examples, 2 compounds total:
CCCCCCCCCCc1c(-c2ccc(O)c(O)c2)oc2c(OC)c(OC)cc(OC)c2c1=O: 7.07
CCCCCCOc1cc(OC)c(OC)c2oc(-c3ccc(O)c(O)c3)c(O)c(=O)c12: 6.11

Batch lookup, pIC50 per entry.
1. CCCCCCOc1c(-c2ccc(O)c(O)c2)oc2c(OC)c(OC)cc(OC)c2c1=O
2. CCCCCCOc1c(OC)c(OC)cc2oc(-c3ccc(O)c(O)c3)c(OC)c(=O)c12
3. CCCCCCCCCCCCCCCCc1c(-c2ccc(O)c(O)c2)oc2cc(OC)c(OC)c(OC)c2c1=O
4. CCCCCCCCCCCCc1c(-c2ccc(O)c(O)c2)oc2c(OC)c(OC)cc(OC)c2c1=O

1. 7.06
2. 6.55
3. 6.02
4. 6.98

Batch lookup, pIC50 per entry.
1. CCCCCCCCCCCCCCCCc1c(-c2ccc(O)c(O)c2)oc2c(OC)c(OC)cc(OC)c2c1=O
2. CCCCCCCCCCCCCCCCc1c(-c2ccc(O)c(O)c2)oc2c(OC)c(OC)cc(O)c2c1=O
3. CCCCCCc1c(-c2ccc(O)c(O)c2)oc2cc(OC)c(OC)c(=O)c-2c1O
4. CCCCCCCCCCCCCCc1c(-c2ccc(O)c(O)c2)oc2c(OC)c(OC)cc(OC)c2c1=O
5. CCCCCCOc1c(OC)c(OC)cc2oc(-c3ccc(O)c(O)c3)c(O)c(=O)c12
6. CCCCc1c(-c2ccc(O)c(O)c2)oc2cc(OC)c(OC)c(=O)c-2c1O

1. 6.30
2. 5.82
3. 6.96
4. 6.94
5. 5.87
6. 6.58

Batch lookup, pIC50 per entry.
1. CCCCCCOc1c(-c2ccc(O)c(O)c2)oc2cc(OC)c(OC)c(OC)c2c1=O
2. CCCCCCCCCCCCCCc1c(-c2ccc(O)c(O)c2)oc2cc(OC)c(OC)c(=O)c-2c1O
3. CCCCCCc1c(-c2ccc(O)c(O)c2)oc2c(OC)c(OC)cc(OC)c2c1=O
4. CCCCCCCCCCc1c(-c2ccc(O)c(O)c2)oc2c(OC)c(OC)cc(O)c2c1=O
5. COc1cc(O)c2c(=O)c(C)c(-c3ccc(O)c(O)c3)oc2c1OC
6. CCCCc1c(-c2ccc(O)c(O)c2)oc2c(OC)c(OC)cc(OC)c2c1=O

6.90
6.06
7.24
6.87
6.52
7.00

Batch lookup, pIC50 per entry.
1. CCCCCCCCc1c(-c2ccc(O)c(O)c2)oc2c(OC)c(OC)cc(OC)c2c1=O
2. COc1cc2oc(-c3ccc(O)c(O)c3)c(C)c(=O)c2c(O)c1OC

[7.21, 6.32]

Please look at this compound and report its pIC50: CCCCCCCCCCCCCCCCc1c(-c2ccc(O)c(O)c2)oc2cc(OC)c(OC)c(=O)c-2c1O 5.90
